The reported numbers originate from the NIST ThermoML archive (doi:10.1021/je500594z).

# CONDITION SUMMARY: 278.15 K; 101 kPa; Liquid; Vibrating tube method
For each entry below, report its mass density value.
Answer format: numeric, kg/m3 implied, no suffix.

Prompt: If you can, please state the reported mass density value of CCn1cc[n+](C)c1.O=S(=O)([N-]S(=O)(=O)C(F)(F)F)C(F)(F)F .
Completion: 1538.23

Prompt: If you can, please state the reported mass density value of CCCC[n+]1ccn(C)c1.O=S(=O)([N-]S(=O)(=O)C(F)(F)F)C(F)(F)F .
Completion: 1453.69

Prompt: If you can, please state the reported mass density value of CCO .
Completion: 802.39

Prompt: If you can, please state the reported mass density value of CCCCCC[n+]1ccn(C)c1.O=S(=O)([N-]S(=O)(=O)C(F)(F)F)C(F)(F)F .
Completion: 1390.3
